Target: EGFR(D770_N771insSVD) expressing Ba/F3 stable cell line (Homo sapiens, UniProt P00533, DUP768-770, cells depend on it)
Sequence (P00533 with tags, fused parts or gaps DUP768-770): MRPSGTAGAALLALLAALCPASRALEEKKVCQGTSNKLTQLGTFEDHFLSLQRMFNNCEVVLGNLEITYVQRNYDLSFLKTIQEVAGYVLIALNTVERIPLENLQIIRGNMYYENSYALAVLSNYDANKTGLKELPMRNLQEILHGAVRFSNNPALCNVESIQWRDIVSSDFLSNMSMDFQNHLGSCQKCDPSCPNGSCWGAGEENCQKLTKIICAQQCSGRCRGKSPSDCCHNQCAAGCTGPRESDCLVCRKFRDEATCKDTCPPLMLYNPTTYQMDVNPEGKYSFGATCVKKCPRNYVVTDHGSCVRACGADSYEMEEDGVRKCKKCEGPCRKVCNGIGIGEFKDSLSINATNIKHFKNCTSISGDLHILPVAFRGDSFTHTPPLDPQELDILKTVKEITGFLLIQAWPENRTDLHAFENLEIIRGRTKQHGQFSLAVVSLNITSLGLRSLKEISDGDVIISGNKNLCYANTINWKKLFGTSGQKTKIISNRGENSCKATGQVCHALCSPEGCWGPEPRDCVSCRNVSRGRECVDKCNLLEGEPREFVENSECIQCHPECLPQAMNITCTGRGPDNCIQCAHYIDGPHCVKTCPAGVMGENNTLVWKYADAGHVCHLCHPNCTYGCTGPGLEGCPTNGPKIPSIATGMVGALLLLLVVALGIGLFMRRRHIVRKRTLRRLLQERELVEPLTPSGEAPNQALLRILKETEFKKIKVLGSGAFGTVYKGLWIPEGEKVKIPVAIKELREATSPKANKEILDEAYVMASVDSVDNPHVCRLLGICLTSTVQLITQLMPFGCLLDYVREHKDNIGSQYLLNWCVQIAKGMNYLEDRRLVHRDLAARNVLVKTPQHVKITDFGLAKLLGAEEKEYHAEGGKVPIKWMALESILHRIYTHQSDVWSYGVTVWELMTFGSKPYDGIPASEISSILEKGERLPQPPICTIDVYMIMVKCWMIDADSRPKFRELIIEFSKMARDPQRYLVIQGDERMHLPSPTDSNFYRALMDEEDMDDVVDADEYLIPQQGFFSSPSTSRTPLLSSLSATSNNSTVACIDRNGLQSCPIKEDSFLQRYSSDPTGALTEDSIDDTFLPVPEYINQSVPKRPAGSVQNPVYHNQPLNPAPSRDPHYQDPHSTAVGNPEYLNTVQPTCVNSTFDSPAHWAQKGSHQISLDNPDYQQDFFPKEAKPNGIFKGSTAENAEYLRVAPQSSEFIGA
Assay: Cellular proliferation (Alamar Blue) assay, EGFR D770_N771insSVD Ba/F3
Type: cell-based
Settings: EGFR D770_N771insSVD Ba/F3, 72 hr, read-out: D770 IC50
Counter-ions that a name gives are not always drawn.
Below: a set of entries, each annotated with reported log10(GI50).
Remember, log10 of GI50, in nM.

Example molecules with recorded log10(GI50):
1) CN(C)C/C=C/C(=O)Nc1cccc(N2C(=O)N(Cc3ccccc3)Cc3cnc(Nc4cnn(CC(F)(F)F)c4)nc32)c1 [Compound 12] | 2.13
2) C[C@@H](c1ccccc1)N1Cc2cnc(Nc3cnn(C)c3)nc2N(c2cccc(NC(=O)/C=C/CN(C)C)c2)C1=O (single isomer, unassigned) [Compound 134] | 2.01
3) C=CC(=O)Nc1cccc(N2C(=O)N(c3ccccc3)Cc3cnc(Nc4cn(C5COC5)nc4Cl)nc32)c1 [Compound 136] | 1.46
4) Cn1cc(Nc2ncc3c(n2)N(c2cccc(NC(=O)/C=C/CF)c2)C(=O)N(Cc2ccccc2)C3)c(F)n1 [Compound 88] | 1.60
5) C=CC(=O)Nc1cccc(N2C(=O)N(Cc3ccccc3)Cc3cnc(Nc4ccc(N5CCN(C)CC5)nc4)nc32)c1 [Compound 67] | 1.92
6) C=CC(=O)Nc1ccc(F)c(N2C(=O)N(Cc3ccccc3)Cc3cnc(Nc4cn(C)nc4Cl)nc32)c1 [Compound 81] | 1.54

The recorded log10(GI50) for entry CN(C)C/C=C/C(=O)Nc1cccc(N2C(=O)N(Cc3ccccc3)Cc3cnc(Nc4cccc5c4CCN5C4CCN(C)CC4)nc32)c1 [Compound 98] equals 2.14

The recorded log10(GI50) for entry CN(C)C/C=C/C(=O)NC1CCCC(N2C(=O)N(Cc3ccccc3)Cc3cnc(Nc4cn(C)nc4Cl)nc32)C1 (stereo not drawn) [Compound 33] equals 3.59

The recorded log10(GI50) for entry C=CC(=O)Nc1cccc(N2C(=O)N(c3ccccc3)Cc3cnc(Nc4cn(C5CCC(O)CC5)nc4Cl)nc32)c1 (stereo not drawn) [Compound 129, trifluoroacetate salt] equals 2.52

====

Below: a set of entries, each annotated with reported GI50.
Molecular target: EGFR(D770_N771insSVD) expressing Ba/F3 stable cell line (Homo sapiens, UniProt P00533, DUP768-770, cells depend on it)
Experiment: Cellular proliferation (Alamar Blue) assay, EGFR D770_N771insSVD Ba/F3
Assay type: cell-based
Details: EGFR D770_N771insSVD Ba/F3, 72 hr, read-out: D770 IC50
Lab book: enter the figure in µM, no units written.

1) C=CC(=O)Nc1cc(N2C(=O)N(Cc3ccccc3)Cc3cnc(Nc4cn(C)nc4Cl)nc32)ccc1OC | 9.13
2) Cn1cc(Nc2ncc3c(n2)N(c2cccc(NC(=O)/C=C/CN4CCCCC4)c2)C(=O)N(Cc2ccccc2)C3)c(Cl)n1 | 0.072
3) Cc1csc(Nc2ncc3c(n2)N(C2CCCC(NC(=O)/C=C/CN(C)C)C2)C(=O)N(Cc2ccccc2)C3)n1 (stereo not shown) | 0.431
4) CN(C)C/C=C/C(=O)Nc1ccc(F)c(N2C(=O)N(Cc3ccccc3)Cc3cnc(Nc4cn(C)nc4Cl)nc32)c1 | 0.123
5) CN(C)C/C=C/C(=O)Nc1cccc(N2C(=O)N(Cc3ccccc3)Cc3cnc(Nc4cn(C)nn4)nc32)c1 | 3.69

Next compound, GI50 to be filled in.
The recorded GI50 for entry CN(C)C/C=C/C(=O)Nc1cccc(N2C(=O)N(Cc3ccccc3)Cc3cnc(Nc4ccncc4)nc32)c1 equals 4.07
